Target: UniProtKB P43116
Sequence (P43116 whole entry): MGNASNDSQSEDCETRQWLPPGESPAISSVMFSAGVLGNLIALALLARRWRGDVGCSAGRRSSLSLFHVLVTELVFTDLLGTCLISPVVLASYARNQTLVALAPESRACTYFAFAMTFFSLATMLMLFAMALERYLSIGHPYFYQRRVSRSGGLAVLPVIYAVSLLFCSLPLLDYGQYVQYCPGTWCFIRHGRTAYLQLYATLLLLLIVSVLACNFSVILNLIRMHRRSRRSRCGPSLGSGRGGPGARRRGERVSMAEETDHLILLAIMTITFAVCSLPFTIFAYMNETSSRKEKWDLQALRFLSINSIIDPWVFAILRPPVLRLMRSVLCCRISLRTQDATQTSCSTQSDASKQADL
Assay: hEP2 cAMP assay (SF295 glioblastoma cells, HTRF cAMP)
Conditions: antagonistic activity
readout: pIC50
Would you please state pIC50, meaning minus log10 of the concentration in mol/L, as a bare number?

# input Short answer please: pIC50, UniProtKB P43116, entry COc1cc2ccccc2c(C)c1CCNc1cc(-c2ccc(CC(=O)O)c(SC)c2)ncn1
# output 6.61

# input Checklist item: pIC50 tested on UniProtKB P43116, entry CCOc1cc(-c2cc(NCCc3ccc4c(c3)OCO4)ncn2)sc1-c1noc(=O)[nH]1 , value?
# output 7.48

# input Recorded pIC50 for CCOc1cc(-c2cc(NCCc3cc4c(cc3OC)OCCO4)ncn2)ccc1OC(C)(C)C(=O)O with UniProtKB P43116, please?
# output 6.56

# input I'm curious: which pIC50 was measured for CCOc1cc(-c2cc(NCCc3cc4ccsc4cc3OC)ncn2)ccc1CC(=O)O tested on UniProtKB P43116?
# output 7.18
